Origin of values: a melting point compilation (Tetko et al.; mined from patent text by program, amines drawn as free bases though some values may be those of a salt)

assay-endpoint: melting point

Provide one value: measured melting point of CSc1ccc(-c2cc(C#N)c(=O)[nH]c2C)cc1
275 to 276 °C

Supply reported melting point belonging to this compound: O=C1C(=O)N(c2cccc3ccccc23)C(=O)N1c1ccc(Cl)cc1
158 °C

Check the records and state melting point for N=C(Nc1ccc(CCNC(=O)C(F)(F)F)cc1)c1cccs1
181 to 182 °C

Tell me measured melting point for CN(C)C(=O)Cc1nc(-c2ccccc2)nc2c1c1ccc(Cl)cc1n2C please.
185 to 187 °C

Output measured melting point for this item: O=C1c2ccccc2CCc2cccnc21
118 to 120 °C

Fill in reported melting point for this entry: COc1ccc2c(c1)CN(C(C)=O)N=C2Cc1c(Cl)cncc1Cl
186 to 188 °C
